System: MS2 coat protein
ASSAY_OVERVIEW: apparent KD of MS2 coat protein, switch ON state; designed switch direction (-1 OFF switch, 1 ON switch): 1; higher = weaker reporter binding
RUN_CONDITIONS: FMN input: 0 or 200 uM; Eterna round: R93 (includes R88 designs)
So basically: apparent KD of MS2 coat protein at 30 nM or higher? That is Condition met. Lower than 30 nM? That is Condition not met.

RESIDUE_STRING: GAAAAACAUGAGGAUCACCCAUGUAAAAAUAUGGGAGGAUAUAGAAAGACGAAAGUCAAACUAGAAGGCCUAAAAG [Garnet 1]
QUALITATIVE_LABEL: Condition not met

RESIDUE_STRING: GCACCACAUGAGGAUCACCCAUGUAAAACGUAGCAAGGAUAUGGGCACGGAUAAUUCCGAUCAGAAGGUGUAACGC [Gemaditera]
QUALITATIVE_LABEL: Condition met

Task item: Exam item: decide whether the reported apparent KD of MS2 coat protein for CGCAGGAAGAGAGAGGAUAUCCAAAGGAAAACAUGAGGAUCACCCAUGUAAAAGGUAGGAAAUUGGGAGAAGGCUCAAGAGAGAG [salish99-ss2-100] is at least 30 nM.
Reply: Condition met

Task item: Exam item: decide whether the reported apparent KD of MS2 coat protein for AAAAAACAUGAGGAUCACCCAUGUGAAAAAAACGCAGGAUAUCCCUUUUUUAAAUGGGAGGGAGAAGGGUGAAAAA [Nob's Hobby 14 - Jieux - Same State 1] is at least 30 nM.
Reply: Condition met

Task item: Exam item: decide whether the reported apparent KD of MS2 coat protein for AAGAAACAUGAGGAUCACCCAUGUAAGAUAAACACAGGAUAUGCGAAAAUAAAUAAAUAAGCAGAAGGGUGAAGAA [Mat - Same State 1 - Tesla mod - 66] is at least 30 nM.
Reply: Condition not met

Task item: Exam item: decide whether the reported apparent KD of MS2 coat protein for AGAAUAAAAACAGAGGAUAUCCAAAAGAAAACAUGAGGAUCACCCAUGUAAAAGAAAAUAAAAUGGGAGAAGGCUGAAAUAAAGA [Mat - Same State 2 - Eli mod - D97] is at least 30 nM.
Reply: Condition not met

Task item: Exam item: decide whether the reported apparent KD of MS2 coat protein for AAAACACAUGAGGAUCACCCAUGUAAAAACAUGAGAGGAUAUGCAUGAAAAACAUGCUAUGCAGAAGGCUCAUGUG [SS1 - 1] is at least 30 nM.
Reply: Condition not met

Task item: Exam item: decide whether the reported apparent KD of MS2 coat protein for AAAUAAAUGACUAAGGAUAUAUCGGAGAAAACAUGAGGAUCACCCAUGUAAUAAUAAAAAGGGUGAUAGAAGGUAGUCAACAAAC [Mod 1 of Pariah 4 by Hyphema in Round 1] is at least 30 nM.
Reply: Condition met
